Target: T1, rat alpha CGRP (SEQ ID NO: 82) (rat)
T1 construct: also called rat αCGRP; rat α-CGRP
T1 peptide: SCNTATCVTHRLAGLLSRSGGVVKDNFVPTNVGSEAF
Test: SPR, 37 C, mutein captured, CGRP analyte

- BINDER: "lipocalin mutein SEQ ID NO: 26 (designed binder, biotinylated by NHS chemistry for capture in SPR) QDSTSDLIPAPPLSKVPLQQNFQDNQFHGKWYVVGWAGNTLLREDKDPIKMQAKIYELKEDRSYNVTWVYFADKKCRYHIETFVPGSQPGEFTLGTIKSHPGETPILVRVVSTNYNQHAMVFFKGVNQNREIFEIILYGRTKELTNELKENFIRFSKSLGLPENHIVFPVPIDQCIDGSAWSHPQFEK"
  koff: "2.01e-05 s⁻¹"
